Values were extracted from ChEMBL document CHEMBL1148625.

- Study System: RNA-directed RNA polymerase (Hepacivirus hominis)
- Test Name: Inhibitory activity against HCV delta 21 NS5B RNA polymerase by SPA assay
- Parameters: species or system Hepatitis C virus subtype 1b
Measurement Kind: IC50 (nM)
Numbers only, in nM.

Data point: O=c1c(C2=Nc3ccccc3S(=O)(=O)N2)c(O)c2ccccc2n1CC1CCCCC1 ; IC50 = 367

Kindly give each listed record's IC50.
1. O=c1c(C2=Nc3ccccc3S(=O)(=O)N2)c(O)c2cc(F)ccc2n1CCC1CC1
2. CC(C)CCn1c(=O)c(C2=Nc3ccccc3S(=O)(=O)N2)c(O)c2c(-c3ccccc3)cccc21
3. CC(C)Cn1c(=O)c(C2=Nc3ccccc3S(=O)(=O)N2)c(O)c2ccccc21
4. CC(C)CCn1c(=O)c(C2=NS(=O)(=O)c3ccccc3N2)c(O)c2cc(NC(=O)CC(C)C)ccc21

10
144
108
6500

###

- Test Name: Clearance in Sprague-Dawley rat at 1.2 mg/kg, iv or 3.7 mg/kg, po
- Format: ADME, organism-based
- Particulars: in vivo
Measurement Kind: clearance (mL/min/kg)
Answers are plain numbers, in mL/min/kg.

Data point: Cc1ccc2c(c1)c(O)c(C1=NS(=O)(=O)c3ccccc3N1)c(=O)n2CCC(C)C ; clearance = 1.65

###

- Test Name: Half life in Sprague-Dawley rat at 1.2 mg/kg, iv or 3.7 mg/kg, po
- Assay type: ADME, organism-based
- Particulars: in vivo
Measurement Kind: half-life
Answer shape: numeric part, then the unit.

Data point: Cc1ccc2c(c1)c(O)c(C1=NS(=O)(=O)c3ccccc3N1)c(=O)n2CCC(C)C ; half-life = 5.29 h

###

- Test Name: Clearance in Sprague-Dawley rat at 1.3 mg/kg, iv or 3.4 mg/kg, po
- Format: ADME, organism-based
- Particulars: in vivo
Measurement Kind: clearance (mL/min/kg)
Numbers only, in mL/min/kg.

Data point: O=c1c(C2=Nc3ccccc3S(=O)(=O)N2)c(O)c2cc(F)ccc2n1CCC1CC1 ; clearance = 1.4

###

- Test Name: Half life in Sprague-Dawley rat at 0.8 mg/kg, iv or 5.8 mg/kg, po
- Assay type: ADME, organism-based
- Particulars: in vivo
Measurement Kind: half-life (min)
Answers are plain numbers, in min.

Data point: CC(C)CCn1c(=O)c(C2=NS(=O)(=O)c3ccccc3N2)c(O)c2ccccc21 ; half-life = 36.4

###

- Test Name: Volume of distribution in Beagle dog at 0.8 mg/kg, iv or 4.0 mg/kg, po
- Type: ADME, organism-based, Canis lupus familiaris
- Particulars: in vivo, read-out: Vdss
Measurement Kind: Vd (L/kg)
Answers are plain numbers, in L/kg.

Data point: O=c1c(C2=Nc3ccccc3S(=O)(=O)N2)c(O)c2cc(F)ccc2n1CCC1CC1 ; Vd = 0.15

###

- Test Name: Clearance in cynomolgus monkey at 1.8 mg/kg, iv or 1.6 mg/kg, po
- Format: ADME, organism-based, Macaca fascicularis
- Particulars: in vivo
Measurement Kind: clearance (mL/min/kg)
Numbers only, in mL/min/kg.

Data point: O=c1c(C2=NS(=O)(=O)c3ccccc3N2)c(O)c2ccccc2n1CCC1CC1 ; clearance = 1.73

###

- Test Name: Cmax in cynomolgus monkey at 1.8 mg/kg, iv or 1.6 mg/kg, po
- Assay type: ADME, organism-based, Macaca fascicularis
- Particulars: in vivo
Measurement Kind: Cmax (ng/mL)
Give bare numbers, in ng/mL.

Data point: O=c1c(C2=NS(=O)(=O)c3ccccc3N2)c(O)c2ccccc2n1CCC1CC1 ; Cmax = 7920

###

- Test Name: Clearance in Beagle dog at 0.9 mg/kg, iv or 1.1 mg/kg, po
- Particulars: in vivo
Measurement Kind: clearance (mL/min/kg)
One number for each entry, in mL/min/kg.

Data point: O=c1c(C2=NS(=O)(=O)c3ccccc3N2)c(O)c2ccccc2n1CCC1CC1 ; clearance = 0.47

###

- Test Name: Oral bioavailability in Sprague-Dawley rat at 1.3 mg/kg, iv or 7.7 mg/kg, po
- Format: ADME, organism-based
- Particulars: in vivo
Measurement Kind: bioavailability (%)
Give bare numbers, in %.

Data point: O=c1c(C2=NS(=O)(=O)c3ccccc3N2)c(O)c2ccccc2n1CCC1CC1 ; bioavailability = 78

###

- Test Name: Cmax in Beagle dog at 0.8 mg/kg, iv or 1.8 mg/kg, po
- Assay type: ADME, organism-based, Canis lupus familiaris
- Particulars: in vivo
Measurement Kind: Cmax
Answer shape: numeric part, then the unit.

Data point: CC(C)CCn1c(=O)c(C2=NS(=O)(=O)c3ccccc3N2)c(O)c2ccccc21 ; Cmax = 2230 ng/mL

###

- Study System: UniProt:O39930
- Test Name: Inhibitory activity against HCV delta 21 NS5B RNA polymerase by SPA assay
- Design: species or system Hepatitis C virus subtype 1b
Lab note: compare IC50 with 80 nM, writing Criterion met if less and Criterion not met if equal or more.

As a guide, the following entries are already answered.
Bench note: check whether O=c1c(C2=NS(=O)(=O)c3ccccc3N2)c(O)c2ccccc2n1Cc1cccnc1 shows IC50 below 80 nM
Criterion not met

Bench note: check whether O=c1c(C2=Nc3ccccc3S(=O)(=O)N2)c(O)c2ccccc2n1CCCCO shows IC50 below 80 nM
Criterion not met

Bench note: check whether CC(C)(C)C(=O)Cn1c(=O)c(C2=NS(=O)(=O)c3ccccc3N2)c(O)c2cc(F)ccc21 shows IC50 below 80 nM
Criterion not met

---
Bench note: check whether O=c1c(C2=Nc3ccccc3S(=O)(=O)N2)c(O)c2ccccc2n1CC1CCC1 shows IC50 below 80 nM
Criterion met

###

- Test Name: Cmax in Sprague-Dawley rat at 1.3 mg/kg, iv or 3.4 mg/kg, po
- Type: ADME, organism-based
- Particulars: in vivo
Measurement Kind: Cmax (ng/mL)
Numbers only, in ng/mL.

Data point: O=c1c(C2=Nc3ccccc3S(=O)(=O)N2)c(O)c2cc(F)ccc2n1CCC1CC1 ; Cmax = 4140

###

- Study System: RNA-directed RNA polymerase (Hepacivirus hominis, UniProt O39930)
- Sequence (O39930 whole entry): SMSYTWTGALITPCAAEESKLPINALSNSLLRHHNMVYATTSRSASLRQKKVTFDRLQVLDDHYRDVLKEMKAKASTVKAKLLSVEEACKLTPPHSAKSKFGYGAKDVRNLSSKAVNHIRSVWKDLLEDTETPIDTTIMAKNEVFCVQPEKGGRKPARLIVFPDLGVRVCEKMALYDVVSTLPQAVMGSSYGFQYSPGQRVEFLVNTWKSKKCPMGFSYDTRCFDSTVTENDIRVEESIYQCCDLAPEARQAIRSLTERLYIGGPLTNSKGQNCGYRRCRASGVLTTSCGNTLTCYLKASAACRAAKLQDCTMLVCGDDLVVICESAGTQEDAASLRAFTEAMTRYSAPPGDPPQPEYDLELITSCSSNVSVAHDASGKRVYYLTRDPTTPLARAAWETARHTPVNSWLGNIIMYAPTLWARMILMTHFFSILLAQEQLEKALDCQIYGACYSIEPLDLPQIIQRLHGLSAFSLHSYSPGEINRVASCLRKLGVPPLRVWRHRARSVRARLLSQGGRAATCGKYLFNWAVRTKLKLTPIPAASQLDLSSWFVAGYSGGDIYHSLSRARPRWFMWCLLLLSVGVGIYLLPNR
- Test Name: Inhibitory activity against HCV delta 21 NS5B RNA polymerase by SPA assay
- Set-up: species or system Hepatitis C virus subtype 1b
pIC50: −log10 of the molar value.
Classify by measured pIC50: criterion met if it is equal to or exceeds 7, criterion not met if it is smaller.

Confirm if pIC50 reported for the molecule C[S+]([O-])CCn1c(=O)c(C2=NS(=O)(=O)c3ccccc3N2)c(O)c2ccccc21 (stereo not drawn) is 7 or above.
criterion not met

Confirm if pIC50 reported for the molecule CC(C)CCn1c(=O)c(C2=Nc3ccccc3S(=O)(=O)N2)c(O)c2cc([N+](=O)[O-])ccc21 is 7 or above.
criterion not met

Confirm if pIC50 reported for the molecule O=c1c(C2=NS(=O)(=O)c3ccccc3N2)c(O)c2ccccc2n1CC1CCCO1 (stereo not drawn) is 7 or above.
criterion not met

---
Confirm if pIC50 reported for the molecule N#CCCCn1c(=O)c(C2=NS(=O)(=O)c3ccccc3N2)c(O)c2ccccc21 is 7 or above.
criterion not met

Confirm if pIC50 reported for the molecule CC(C)CCn1c(=O)c(C2=Nc3ccccc3S(=O)(=O)N2)c(O)c2cc(NC(=O)C3CCCC3)ccc21 is 7 or above.
criterion not met

Confirm if pIC50 reported for the molecule COCCOc1ccc2c(c1)c(O)c(C1=NS(=O)(=O)c3ccccc3N1)c(=O)n2CCC(C)C is 7 or above.
criterion not met

Confirm if pIC50 reported for the molecule CC(C)CCn1c(=O)c(C2=Nc3ccccc3S(=O)(=O)N2)c(O)c2cc(NCC(=O)O)ccc21 is 7 or above.
criterion met

Confirm if pIC50 reported for the molecule O=c1c(C2=NS(=O)(=O)c3ccccc3N2)c(O)c2ccccc2n1Cc1ccoc1 is 7 or above.
criterion met

###

- Test Name: Cmax in Sprague-Dawley rat at 1.3 mg/kg, iv or 7.7 mg/kg, po
- Type: ADME, organism-based
- Particulars: in vivo
Measurement Kind: Cmax (ng/mL)
Answers are plain numbers, in ng/mL.

Data point: O=c1c(C2=NS(=O)(=O)c3ccccc3N2)c(O)c2ccccc2n1CCC1CC1 ; Cmax = 6460

###

- Test Name: Oral bioavailability in Beagle dog at 0.9 mg/kg, iv or 1.1 mg/kg, po
- Assay type: ADME, organism-based, Canis lupus familiaris
- Particulars: in vivo
Measurement Kind: bioavailability (%)
Give bare numbers, in %.

Data point: O=c1c(C2=NS(=O)(=O)c3ccccc3N2)c(O)c2ccccc2n1CCC1CC1 ; bioavailability = 100

###

- Test Name: Volume of distribution in Sprague-Dawley rat at 1.3 mg/kg, iv or 3.4 mg/kg, po
- Type: ADME, organism-based
- Particulars: in vivo, read-out: Vdss
Measurement Kind: Vd

Data point: O=c1c(C2=Nc3ccccc3S(=O)(=O)N2)c(O)c2cc(F)ccc2n1CCC1CC1 ; Vd = 0.36 L/kg
